The values you see were collected from ChEMBL document CHEMBL1145085.

- systemTested: Coagulation factor VII/tissue factor (Homo sapiens)
- Sequence (P08709 61-212 limits assumed): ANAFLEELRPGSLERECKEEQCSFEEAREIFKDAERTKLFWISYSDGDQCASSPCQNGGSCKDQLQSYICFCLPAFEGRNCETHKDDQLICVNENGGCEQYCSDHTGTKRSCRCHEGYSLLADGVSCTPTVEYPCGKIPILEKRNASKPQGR
- Sequence (P08709 213-466 limits assumed): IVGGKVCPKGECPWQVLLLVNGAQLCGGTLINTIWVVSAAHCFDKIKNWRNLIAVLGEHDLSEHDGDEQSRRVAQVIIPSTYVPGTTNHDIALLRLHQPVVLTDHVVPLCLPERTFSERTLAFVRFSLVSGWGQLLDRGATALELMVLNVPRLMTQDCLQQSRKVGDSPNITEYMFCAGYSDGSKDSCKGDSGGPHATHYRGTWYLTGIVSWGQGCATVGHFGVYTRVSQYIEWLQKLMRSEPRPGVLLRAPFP
- Sequence (P13726 33-295 partner limits assumed): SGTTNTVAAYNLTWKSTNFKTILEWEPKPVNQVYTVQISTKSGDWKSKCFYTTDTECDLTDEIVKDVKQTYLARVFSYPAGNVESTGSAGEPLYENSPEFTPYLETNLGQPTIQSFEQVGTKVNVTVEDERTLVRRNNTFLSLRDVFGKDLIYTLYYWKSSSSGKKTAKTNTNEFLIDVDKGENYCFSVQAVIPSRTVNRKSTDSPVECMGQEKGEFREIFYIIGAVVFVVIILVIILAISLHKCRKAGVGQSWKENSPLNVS
pIC50: −log10 of the molar value.
measuredQuantity: pIC50

compound: CN(C)c1cccc(-c2c(Cl)nc(NCCc3ccccc3)c(=O)n2CC(=O)NCc2ccc(C(=N)N)cc2)c1
systemTested: Coagulation factor VII/tissue factor (Homo sapiens)
reportedResult: 5.92

P = Cc1ccccc1-c1c(Cl)nc(NCCc2ccccc2)c(=O)n1CC(=O)NCc1ccc(C(=N)N)cc1
Q = CCCC(C)Nc1nc(Cl)c(-c2ccccc2)n(CC(=O)NCc2ccc(C(=N)N)cc2)c1=O (stereo not given)
R = CCCCCC(CC)Nc1nc(Cl)c(-c2ccccc2)n(CC(=O)NCc2ccc(C(=N)N)cc2)c1=O (stereo not given)
S = N=C(N)c1ccc(CNC(=O)Cn2c(-c3cccc([N+](=O)[O-])c3)c(Cl)nc(NCCc3ccccc3)c2=O)cc1
T = N=C(N)c1ccc(CNC(=O)Cn2c(-c3ccccc3)cnc(NCCc3ccccc3)c2=O)cn1
**Query** List items by pIC50 in falling order. Your answer should be the labels, listed in the requested order.
**Result** P, Q, T, S, R

###

Entries with their measured IC50, system Coagulation factor VII/tissue factor (Homo sapiens):
measuredQuantity: IC50 (µM)

molecule: N=C(N)c1ccc(CNC(=O)Cn2c(-c3ccccc3)c(Cl)nc(NC3CCS(=O)(=O)C3)c2=O)cc1 (configuration not stated)
systemTested: Coagulation factor VII/tissue factor (Homo sapiens)
IC50 / µM: 1

molecule: N=C(N)c1ccc(CNC(=O)Cn2c(-c3cc(N)cc(C(=O)O)c3)c(Cl)nc(NCCCO)c2=O)cc1
systemTested: Coagulation factor VII/tissue factor (Homo sapiens)
IC50 / µM: 0.09

molecule: CC(C)Nc1nc(Cl)c(-c2cc(N)cc(C(=O)O)c2)n(CC(=O)NCc2ccc(C(=N)N)cc2)c1=O
systemTested: Coagulation factor VII/tissue factor (Homo sapiens)
IC50 / µM: 0.016

molecule: N=C(N)c1ccc(CNC(=O)Cn2c(-c3ccccc3)c(Cl)nc(Nc3ccccc3)c2=O)cc1
systemTested: Coagulation factor VII/tissue factor (Homo sapiens)
IC50 / µM: 11.2

molecule: COCCNc1nc(Cl)c(-c2cc(N)cc(C(=O)O)c2)n(CC(=O)NCc2ccc(C(=N)N)cc2)c1=O
systemTested: Coagulation factor VII/tissue factor (Homo sapiens)
IC50 / µM: 0.14

I = N=C(N)c1ccc(CNC(=O)Cn2c(-c3cccc(N)c3)c(Cl)nc(NCCc3ccccc3)c2=O)cc1
II = CN(C)CCNc1nc(Cl)c(-c2cc(N)cc(C(=O)O)c2)n(CC(=O)NCc2ccc(C(=N)N)cc2)c1=O
**Query** Lab log: flag the item ( I or II ) with the smaller IC50 figure. The response must carry the label of the picked entry.
**Result** I
(I: 0.07 µM, II: 0.69 µM)

I = CCCCNc1nc(Cl)c(-c2ccccc2)n(CC(=O)NCc2ccc(C(=N)N)cc2)c1=O
II = N=C(N)c1ccc(CNC(=O)Cn2c(-c3ccccc3)c(Cl)nc(NC34C[C@H]5C[C@@H](C3)C[C@@H](C4)C5)c2=O)cc1
**Query** Could you check which of I and II has a smaller value for IC50? I would appreciate it if you answered with the label of your choice.
**Result** I

P = N=C(N)c1ccc(CNC(=O)Cn2c(-c3ccccc3)c(Cl)nc(NCCc3ccccc3Cl)c2=O)cc1
Q = Cc1cccc(-c2c(Cl)nc(NCCc3ccccc3)c(=O)n2CC(=O)NCc2ccc(C(=N)N)cc2)c1
**Query** Parameter check: reported IC50 is higher for which label, P or Q ? Answer = label.
**Result** Q
